- Tested target: UniProt:P25054
- Run description: Fluorescence-polarization
- Type: binding
- Assay context: pIC50, test set, Table 3; pIC50 = ‒Log [IC50 (μmol/L) × 10^−6]
Parameter measured: IC50 (nM)
The answer is to be given in nM; state only the numeric part.

The recorded IC50 for entry CSc1nccc(C(=O)N[C@@H](CCC(=O)O)C(=O)N[C@@H](Cc2ccc3ccccc3c2)C(=O)N[C@@H](CC(C)C)C(=O)NC2CC2c2ccccc2)n1 (stereo partly shown) equals 708

* * *

- Tested target: APC‒Asef (Homo sapiens)
- Sequence (P25054 303-739): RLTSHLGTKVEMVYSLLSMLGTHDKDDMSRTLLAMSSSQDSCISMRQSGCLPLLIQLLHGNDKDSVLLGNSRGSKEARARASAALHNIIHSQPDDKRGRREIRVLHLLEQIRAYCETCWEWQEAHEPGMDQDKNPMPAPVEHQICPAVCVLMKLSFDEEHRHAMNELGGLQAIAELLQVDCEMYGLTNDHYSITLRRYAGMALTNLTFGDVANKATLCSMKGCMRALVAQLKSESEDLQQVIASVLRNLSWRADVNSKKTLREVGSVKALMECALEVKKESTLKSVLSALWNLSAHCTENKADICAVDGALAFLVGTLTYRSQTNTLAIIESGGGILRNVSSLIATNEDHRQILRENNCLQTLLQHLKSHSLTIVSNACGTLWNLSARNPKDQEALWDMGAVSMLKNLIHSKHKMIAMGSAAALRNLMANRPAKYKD
- Run description: Fluorescence-polarization
- Type: binding
- Assay context: IC50 ± SD, FP competition assay, three independent experiments
pIC50: −log10 of the molar value.
Returns 1 (yes) if the recorded pIC50 is greater than or equal to 5, and 0 (no) otherwise.

[
  {
    "Molecule": "CSc1ncc(Br)c(C(=O)N[C@@H](CCC(=O)O)C(=O)N[C@@H](Cc2ccc3ccccc3c2)C(=O)N[C@@H](CC(C)C)C(=O)N[C@@H]2C[C@H]2c2ccccc2)n1",
    "Class name": "1 (yes)"
  },
  {
    "Molecule": "CSc1nccc(C(=O)N[C@@H](CC(=O)O)C(=O)N[C@@H](Cc2ccc3ccccc3c2)C(=O)N[C@@H](CC(C)C)C(=O)NC2CC2c2ccccc2)n1 (stereo partly drawn)",
    "Class name": "0 (no)"
  },
  {
    "Molecule": "CC(C)C[C@H](NC(=O)[C@H](CC1CC1)NC(=O)[C@H](CCC(=O)O)NC(=O)c1ccncn1)C(=O)NC1CC1c1ccccc1 (stereo partly drawn)",
    "Class name": "0 (no)"
  },
  {
    "Molecule": "CSc1nccc(C(=O)N[C@@H](CCC(=O)O)C(=O)N[C@@H](Cc2ccc3ccccc3c2)C(=O)N[C@@H](CC(C)C)C(=O)N[C@@H]2C[C@H]2c2ccccc2)n1",
    "Class name": "1 (yes)"
  },
  {
    "Molecule": "CC(C)C[C@H](NC(=O)[C@H](CC1CCCCC1)NC(=O)[C@H](CCC(=O)O)NC(=O)c1ccncn1)C(=O)NC1CC1c1ccccc1 (stereo partly drawn)",
    "Class name": "0 (no)"
  }
]

Q: Please check the record CC(C)C[C@H](NC(=O)[C@H](CO)NC(=O)[C@H](CCC(=O)O)NC(=O)c1ccncn1)C(=O)NCCc1ccccc1 and state if its pIC50 is at or above 5.
Ans: 0 (no)

Q: Please check the record CSc1nccc(C(=O)N[C@@H](CCC(=O)O)C(=O)N[C@H](Cc2ccc3ccccc3c2)C(=O)N[C@@H](CC(C)C)C(=O)NC2CC2c2ccccc2)n1 (stereo partly drawn) and state if its pIC50 is at or above 5.
Ans: 0 (no)

Q: Please check the record CC(C)C[C@H](NC(=O)[C@H](Cc1ccccc1)NC(=O)[C@H](CCC(=O)O)NC(=O)c1ccncn1)C(=O)NC1CC1c1ccccc1 (stereo partly drawn) and state if its pIC50 is at or above 5.
Ans: 0 (no)

* * *

Listing of entries alongside the reported AUC(0-t).
- Run description: Pharmacokinetic study in mice
- Type: in vivo
- Assay context: male, BALB/c, mouse, plasma, ip, 1 mg/kg
Square brackets hold non-standard residues; d marks the D form. Peptide text beside a SMILES is read from it. * marks the point of attachment. Ala(cPent) = N[C@@H](CC1CCCC1)C(=O)O; Cbz = O=C(OCc1ccccc1)*
The answer is to be given in ng·h/mL; state only the numeric part.

[
  {
    "Molecule": "CSc1ncc(Br)c(C(=O)N[C@@H](CCC(=O)OC(C)(C)C)C(=O)N[C@@H](Cc2ccc3ccccc3c2)C(=O)N[C@@H](CC(C)C)C(=O)N[C@@H]2C[C@H]2c2ccccc2)n1",
    "AUC(0-t), ng·h/mL": 4800
  }
]

The recorded AUC(0-t) for entry C[C@H](NC(=O)OCc1ccccc1)C(=O)NCC(=O)N[C@@H](CCC(=O)O)C(=O)N[C@@H](C)C(=O)N[C@@H](CC1CCCC1)C(=O)N[C@@H](Cc1ccc(O)cc1)C(=O)N[C@@H](CCC(=O)O)C(N)=O [MAI-203, reference compound] (Cbz-AGEA[Ala(cPent)]YE-NH2; N-terminus and C-terminus assumed) equals 52.4

The recorded AUC(0-t) for entry CSc1ncc(Br)c(C(=O)N[C@@H](CCC(=O)O)C(=O)N[C@@H](Cc2ccc3ccccc3c2)C(=O)N[C@@H](CC(C)C)C(=O)N[C@@H]2C[C@H]2c2ccccc2)n1 equals 124
